- measured_on: Menin-MLL (Homo sapiens, UniProt O00255)
- Construct: His-Menin (M1-L615 end); purchased BIORTUS BP9210
- Sequence (O00255 1-615 isoform O00255-1): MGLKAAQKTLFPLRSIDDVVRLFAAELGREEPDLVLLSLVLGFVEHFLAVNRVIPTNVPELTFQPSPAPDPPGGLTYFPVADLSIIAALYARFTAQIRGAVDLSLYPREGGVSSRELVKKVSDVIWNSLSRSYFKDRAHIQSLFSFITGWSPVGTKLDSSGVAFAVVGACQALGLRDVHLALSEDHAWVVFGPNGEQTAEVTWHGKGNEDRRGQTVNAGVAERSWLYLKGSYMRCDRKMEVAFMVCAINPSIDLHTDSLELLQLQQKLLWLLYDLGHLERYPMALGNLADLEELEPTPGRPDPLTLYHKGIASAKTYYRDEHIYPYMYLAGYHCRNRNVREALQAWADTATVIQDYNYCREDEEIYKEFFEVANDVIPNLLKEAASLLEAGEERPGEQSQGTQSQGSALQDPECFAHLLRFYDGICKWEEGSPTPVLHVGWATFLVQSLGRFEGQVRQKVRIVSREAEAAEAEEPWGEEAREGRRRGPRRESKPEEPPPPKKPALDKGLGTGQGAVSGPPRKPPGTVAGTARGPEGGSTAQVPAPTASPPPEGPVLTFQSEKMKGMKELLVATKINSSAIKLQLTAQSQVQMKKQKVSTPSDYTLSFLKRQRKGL
- assay_info: Inhibitory activity against Menin-MLL binding (fluorescence polarization)
- assay_setup: fluorescence polarization; 150 nM His-Menin, 15 nM FITC-MLL; 25°C for 60 min; read-out: Menin-MLL IC50
pIC50: −log10 of the molar value.
Mark f for pIC50 values under 8, and t for everything at or above.

Solved cases below.
compound	class_name
C=C1CN[C@H](C(=O)N2CCN(c3cc(-c4ccc(F)cc4C(=O)N(CC)C(C)C)c4c(Cl)nc(C)n4c3)CC2)C1	f
CCN(C(=O)c1cc(F)ccc1-c1cc(C2CCN(CC3CCC(NC(=O)OC(C)(C)C)CC3)C2)cc2cncn12)C(C)C (centres unmarked)	f
C=C1CN[C@H](C(=O)N2CCC(c3cc(-c4ccc(F)cc4C(=O)N(CC(F)F)C(C)C)c4cnc(C)n4c3)CC2)C1	f
Cc1nc(F)c2c(-c3ccc(F)cc3C(=O)N3CCOC[C@H]3C)cc(C3CN([C@@H](C)C4CCN(C(=O)C(C)(F)F)CC4)C3)cn12	f
CCN(C(=O)c1cc(F)ccc1-c1cc(C2CN([C@H](CCCN3C4COCC3C4)C(C)C)C2)cn2c(C)ncc12)C(C)C	t

Given `CC(=O)N1CCN(CCC[C@H](C(C)C)N2CC(c3cc(-c4ccc(F)cc4C(=O)N4CCOC[C@H]4C)c4c(F)nc(C)n4c3)C2)CC12CC2` , state whether its pIC50 is at least 8.
f

Given `CCN(C(=O)c1cc(F)ccc1-c1cc(C2CN([C@H](C)C3CCN(C(=O)CO)CC3)C2)cn2c(C)nc(F)c12)C(C)C` , state whether its pIC50 is at least 8.
f

Given `CCN(C(=O)c1cc(F)ccc1-c1cc(C2CN([C@H](CCCN3C4CCC3CN(C(C)=O)C4)C(C)C)C2)cn2c(C)ncc12)C(C)C` , state whether its pIC50 is at least 8.
t

Given `COCCN(C)CCC[C@@H](C(C)C)N1CC(c2cc(-c3ccc(F)cc3C(=O)N3CCOC[C@H]3C)c3c(F)nc(C)n3c2)C1` , state whether its pIC50 is at least 8.
f

Given `CCN(C(=O)c1cc(F)ccc1-c1cc(C2CN([C@H](CCCN3CC4(C3)CN(C(C)=O)C4)C(C)C)C2)cn2c(C)ncc12)C(C)C` , state whether its pIC50 is at least 8.
t

Given `CCOC(=O)N1CCC(CN2CC(c3cc(-c4ccc(F)cc4C(=O)N4CCOC[C@H]4C)c4c(F)nc(C)n4c3)C2)CC1` , state whether its pIC50 is at least 8.
f

Given `CC(=O)N1CCC(CN2CC(c3cc(-c4ccc(F)cc4C(=O)N4CCOC[C@H]4C)c4c(F)nc(C)n4c3)C2)CC1` , state whether its pIC50 is at least 8.
f

Given `CCN(C(=O)c1cc(F)ccc1-c1cc(C2CN([C@H](CC[C@H]3COCCN3)C(C)C)C2)cn2c(C)ncc12)C(C)C` , state whether its pIC50 is at least 8.
t
